Where do these numbers come from? They come from patent US6747016B1.

target: 293 cells cotransfected with αv and β3 subunits of the vitronectin receptor αvβ3, binding to human vitronectin (Homo sapiens, UniProt P05106+P06756); assay: Vitronectin/293 cell test (Vn/293 cell test); settings: inhibition of binding of 293 cells to human vitronectin
Sequence (P05106 whole entry): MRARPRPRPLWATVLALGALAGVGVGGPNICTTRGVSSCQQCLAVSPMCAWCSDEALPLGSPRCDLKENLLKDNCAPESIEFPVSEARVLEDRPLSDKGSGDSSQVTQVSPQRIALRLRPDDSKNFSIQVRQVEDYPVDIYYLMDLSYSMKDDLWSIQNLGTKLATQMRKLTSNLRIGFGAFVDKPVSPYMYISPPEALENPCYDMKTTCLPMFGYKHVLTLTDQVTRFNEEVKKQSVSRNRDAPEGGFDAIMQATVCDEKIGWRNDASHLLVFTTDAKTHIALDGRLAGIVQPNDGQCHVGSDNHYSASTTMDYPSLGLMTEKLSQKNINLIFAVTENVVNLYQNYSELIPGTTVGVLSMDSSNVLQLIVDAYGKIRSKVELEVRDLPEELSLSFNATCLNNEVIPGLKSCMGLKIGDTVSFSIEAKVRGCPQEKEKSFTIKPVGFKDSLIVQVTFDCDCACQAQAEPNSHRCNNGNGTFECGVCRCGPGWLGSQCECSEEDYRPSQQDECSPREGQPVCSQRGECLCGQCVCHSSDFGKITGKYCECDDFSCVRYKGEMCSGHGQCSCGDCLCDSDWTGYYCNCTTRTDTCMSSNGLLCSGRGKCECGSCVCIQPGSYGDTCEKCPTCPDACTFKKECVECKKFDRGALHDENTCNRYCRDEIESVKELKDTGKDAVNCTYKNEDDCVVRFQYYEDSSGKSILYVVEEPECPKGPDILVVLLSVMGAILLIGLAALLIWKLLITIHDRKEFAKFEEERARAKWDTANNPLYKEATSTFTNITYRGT
Sequence (P06756 whole entry): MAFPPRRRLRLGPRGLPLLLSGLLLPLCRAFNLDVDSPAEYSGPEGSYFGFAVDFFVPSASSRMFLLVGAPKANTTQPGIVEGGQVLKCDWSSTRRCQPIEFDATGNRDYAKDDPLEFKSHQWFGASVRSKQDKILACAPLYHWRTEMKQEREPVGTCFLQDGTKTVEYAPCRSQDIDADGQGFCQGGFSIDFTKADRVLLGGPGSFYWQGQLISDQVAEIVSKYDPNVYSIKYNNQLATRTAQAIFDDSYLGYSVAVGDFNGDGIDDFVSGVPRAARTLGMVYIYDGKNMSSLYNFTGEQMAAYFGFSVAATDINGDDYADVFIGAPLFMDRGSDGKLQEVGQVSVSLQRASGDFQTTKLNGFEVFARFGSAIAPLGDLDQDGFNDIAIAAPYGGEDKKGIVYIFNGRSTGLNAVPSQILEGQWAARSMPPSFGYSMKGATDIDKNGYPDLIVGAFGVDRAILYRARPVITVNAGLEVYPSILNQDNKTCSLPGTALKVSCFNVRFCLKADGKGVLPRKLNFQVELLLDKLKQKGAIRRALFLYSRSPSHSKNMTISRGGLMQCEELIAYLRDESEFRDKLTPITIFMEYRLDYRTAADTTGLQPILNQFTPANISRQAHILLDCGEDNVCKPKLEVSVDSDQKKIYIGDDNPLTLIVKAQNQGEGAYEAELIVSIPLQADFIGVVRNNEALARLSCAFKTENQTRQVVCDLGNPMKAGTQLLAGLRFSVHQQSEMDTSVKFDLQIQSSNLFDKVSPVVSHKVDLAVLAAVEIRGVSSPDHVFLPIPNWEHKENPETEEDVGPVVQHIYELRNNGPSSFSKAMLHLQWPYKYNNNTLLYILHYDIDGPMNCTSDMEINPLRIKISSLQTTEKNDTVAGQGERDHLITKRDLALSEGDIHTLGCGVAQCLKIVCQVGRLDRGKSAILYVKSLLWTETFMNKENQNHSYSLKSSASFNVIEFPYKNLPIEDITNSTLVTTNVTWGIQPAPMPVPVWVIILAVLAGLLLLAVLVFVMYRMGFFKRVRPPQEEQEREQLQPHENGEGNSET
readout: IC50 (nM)

1. O=C(NC1=NCCCN1)C1CCN(c2ncnc3c2ncn3C[C@H](NS(=O)(=O)c2cccc3ccccc23)C(=O)O)CC1: 30
2. O=C(NC1=NCCCN1)C1CCN(c2ncnc3c2ncn3C[C@H](NS(=O)(=O)Cc2ccccc2)C(=O)O)CC1: 500
3. Cc1cc(C)c(S(=O)(=O)N[C@@H](Cn2cnc3c(N4CCC(C(=O)NC5=NCCCN5)CC4)ncnc32)C(=O)O)c(C)c1: 38
4. CC(C)CS(=O)(=O)N[C@@H](Cn1cnc2c(N3CCC(C(=O)NC4=NCCCN4)CC3)ncnc21)C(=O)O: 1120
5. Cc1ccc(S(=O)(=O)N[C@@H](Cn2cnc3c(N4CCC(C(=O)NC5=NCCCN5)CC4)ncnc32)C(=O)O)cc1: 87
6. O=C(NC1=NCCCN1)C1CCN(c2ncnc3c2ncn3C[C@H](NS(=O)(=O)c2ccc(C(F)(F)F)cc2)C(=O)O)CC1: 28
7. O=C(NC1=NCCCN1)C1CCN(c2ncnc3c2ncn3C[C@H](NS(=O)(=O)c2cccc(C(F)(F)F)c2)C(=O)O)CC1: 42
8. O=C(NC1=NCCCN1)C1CCN(c2ncnc3c2ncn3C[C@H](NS(=O)(=O)CC(F)(F)F)C(=O)O)CC1: 2500
9. CC(C)(C)c1ccc(S(=O)(=O)N[C@@H](Cn2cnc3c(N4CCC(C(=O)NC5=NCCCN5)CC4)ncnc32)C(=O)O)cc1: 67
10. CCCS(=O)(=O)N[C@@H](Cn1cnc2c(N3CCC(C(=O)NC4=NCCCN4)CC3)ncnc21)C(=O)O: 1400
11. O=C(NC1=NCCCN1)C1CCN(c2ncnc3c2ncn3C[C@H](NS(=O)(=O)c2ccc3ccccc3c2)C(=O)O)CC1: 9
